system name: T1, His-tagged Bromo-PHD tandem domain (residue 2425–2627) of mASH1L (mouse, UniProt Q99MY8 2425-2627)
T1 construct: ASH1L (mASH1L), bromodomain and PHD finger in tandem, residues 2425-2627; pNIC-Bsa4 vector; no cleavage of the His tag is described; also called tandem Bromo-PHD protein; source: E. coli BL21 (DE3), purified (HiTrap IMAC FF, Superdex 75)
assay: ITC; MicroCal iTC200, 25°C, 1×PBS pH 7.2, 100 μM ZnCl2; 100 µM PHD or tandem Bromo-PHD in the cell, titrated with 3 mM peptide (31 injections of 1.2 μl); one set of sites model
protocol conditions: both partners purified
Primed or numbered codes have the meaning given here. Where no end group is shown, it is not given here. [ ]: non-standard residue; d: D form. Me3″ = trimethylation (trimethyl-lysine); Lys(Me2) = CN(C)CCCC[C@H](N)C(=O)O
quantity kind: Kd

Past entries and their recorded results:
>  <binder>
ARTK(Me3″)QTARKSTGGKA (peptide, UniProt P68431 2-16, looked up, histone H3, residues 1-15; also called H3K4me3; source: synthetic peptide (MIMOYOPES, Wuxi, China)) [histone H3 (1–15) peptide, trimethylated on lysine 4]

>  <observed measurement>
~48 µM

$$$$
>  <binder>
ARTK(Me)QTARKSTGGKA (peptide, UniProt P68431 2-16, looked up, histone H3, residues 1-15; also called H3K4me1; H3K4me; source: synthetic peptide (MIMOYOPES, Wuxi, China)) [histone H3 (1–15) peptide, monomethylated on lysine 4]

>  <observed measurement>
~64 µM

$$$$
>  <binder>
ART[Lys(Me2)]QTARKSTGGKA (also called H3K4me2; H3K4me2 peptide (1–15); source: synthetic peptide (MIMOYOPES, Wuxi, China)) [histone H3 (1–15) peptide, dimethylated on lysine 4]

>  <observed measurement>
~29 µM

$$$$

Report Kd for ARTKQTARKSTGGKA (peptide, UniProt P68431 2-16, looked up, histone H3, residues 1-15; also called H3K4; H3K4me0; source: synthetic peptide (MIMOYOPES, Wuxi, China)) [histone H3 (1–15) peptide, unmethylated on lysine 4]
> 500 µM
